Biological target: TRAP1 enzyme (Homo sapiens, UniProt Q12931)
Construct: 150 nM Trap1 enzyme was incubated with various concentrations of the test compound
Sequence (Q12931 60-704): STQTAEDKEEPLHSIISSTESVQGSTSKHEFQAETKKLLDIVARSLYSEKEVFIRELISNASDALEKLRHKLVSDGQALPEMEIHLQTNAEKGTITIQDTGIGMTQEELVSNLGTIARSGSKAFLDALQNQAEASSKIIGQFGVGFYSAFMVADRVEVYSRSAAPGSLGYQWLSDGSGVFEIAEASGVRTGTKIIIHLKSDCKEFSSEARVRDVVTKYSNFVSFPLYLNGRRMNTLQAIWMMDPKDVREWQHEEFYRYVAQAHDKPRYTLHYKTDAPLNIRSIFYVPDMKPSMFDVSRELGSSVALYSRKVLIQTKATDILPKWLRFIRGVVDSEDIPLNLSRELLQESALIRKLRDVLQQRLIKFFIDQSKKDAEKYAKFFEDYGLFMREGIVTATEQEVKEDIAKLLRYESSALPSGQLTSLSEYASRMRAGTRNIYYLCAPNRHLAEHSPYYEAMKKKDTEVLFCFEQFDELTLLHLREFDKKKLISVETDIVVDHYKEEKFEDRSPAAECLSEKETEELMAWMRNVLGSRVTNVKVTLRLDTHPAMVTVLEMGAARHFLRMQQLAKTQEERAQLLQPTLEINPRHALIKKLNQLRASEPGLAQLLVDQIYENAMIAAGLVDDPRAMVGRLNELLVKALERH
Assay: ADP Glo assay of TRAP1 ATPase activity
Type: biochemical
Details: 1 h; compound concentration 50 μM; read-out: ADP-Glo Percent Activation at 50 μM
QUANTITY MEASURED: activation at 50 µM

Q. Report value: activation at 50 µM, system: TRAP1 enzyme (Homo sapiens, UniProt Q12931), compound: COc1ncc(NC(=O)c2n[nH]c3c2CCCC3)cc1S(=O)(=O)Nc1c(C)cccc1C [compound 2736]
A. 181 to 352%

Q. Report value: activation at 50 µM, system: TRAP1 enzyme (Homo sapiens, UniProt Q12931), compound: COCCn1ccc(C(=O)Nc2cnc(OC)c(S(=O)(=O)Nc3c(C)cccc3C)c2)n1 [compound 2665]
A. 120 to 150%

Q. Report value: activation at 50 µM, system: TRAP1 enzyme (Homo sapiens, UniProt Q12931), compound: COc1ncc(NC(=O)c2nnsc2C2CC2)cc1S(=O)(=O)Nc1c(C)cccc1C [compound 2758]
A. 151 to 180%

Q. Report value: activation at 50 µM, system: TRAP1 enzyme (Homo sapiens, UniProt Q12931), compound: COc1ncc(NC(=O)c2nc(C)oc2C)cc1S(=O)(=O)Nc1c(C)cccc1C [compound 2692]
A. 120 to 150%

Q. Report value: activation at 50 µM, system: TRAP1 enzyme (Homo sapiens, UniProt Q12931), compound: COc1ncc(NC(=O)c2snnc2C)cc1S(=O)(=O)Nc1c(C)cccc1C [compound 2615]
A. 120 to 150%

Q. Report value: activation at 50 µM, system: TRAP1 enzyme (Homo sapiens, UniProt Q12931), compound: COc1ncc(NC(=O)c2cn(C(C)(C)C)nn2)cc1S(=O)(=O)Nc1c(C)cccc1C [compound 2755]
A. 151 to 180%

Q. Report value: activation at 50 µM, system: TRAP1 enzyme (Homo sapiens, UniProt Q12931), compound: COc1ncc(NC(=O)c2nc3c(s2)CN(C)CC3)cc1S(=O)(=O)Nc1c(C)cccc1C [compound 2594]
A. 151 to 180%

Q. Report value: activation at 50 µM, system: TRAP1 enzyme (Homo sapiens, UniProt Q12931), compound: COc1ncc(NC(=O)c2ccc(C(C)(C)O)cc2)cc1S(=O)(=O)Nc1c(C)cccc1C [compound 2787]
A. 151 to 180%

Q. Report value: activation at 50 µM, system: TRAP1 enzyme (Homo sapiens, UniProt Q12931), compound: COc1ncc(NC(=O)c2ccn(C)c2)cc1S(=O)(=O)Nc1c(C)cccc1C [compound 2666]
A. 120 to 150%

Q. Report value: activation at 50 µM, system: TRAP1 enzyme (Homo sapiens, UniProt Q12931), compound: COc1ncc(NC(=O)c2ccon2)cc1S(=O)(=O)Nc1c(C)cccc1C [compound 2741]
A. 120 to 150%

Q. Report value: activation at 50 µM, system: TRAP1 enzyme (Homo sapiens, UniProt Q12931), compound: COc1ncc(NC(=O)c2cccc(N3CCN(C)CC3)c2)cc1S(=O)(=O)Nc1c(C)cccc1C [compound 2633]
A. 181 to 352%

Q. Report value: activation at 50 µM, system: TRAP1 enzyme (Homo sapiens, UniProt Q12931), compound: COc1ncc(NC(=O)c2cnn(C)c2C(F)F)cc1S(=O)(=O)Nc1c(C)cccc1C [compound 2713]
A. 181 to 352%

Q. Report value: activation at 50 µM, system: TRAP1 enzyme (Homo sapiens, UniProt Q12931), compound: COc1ncc(NC(=O)c2cc(C)nn2C(F)F)cc1S(=O)(=O)Nc1c(C)cccc1C [compound 2646]
A. 151 to 180%

Q. Report value: activation at 50 µM, system: TRAP1 enzyme (Homo sapiens, UniProt Q12931), compound: COc1ncc(NC(=O)c2cccc(CN3CCN(C)CC3)c2)cc1S(=O)(=O)Nc1c(C)cccc1C [compound 2715]
A. 120 to 150%

Q. Report value: activation at 50 µM, system: TRAP1 enzyme (Homo sapiens, UniProt Q12931), compound: CCc1cc(C(=O)Nc2cnc(OC)c(S(=O)(=O)Nc3c(C)cccc3C)c2)n(C)n1 [compound 2600]
A. 151 to 180%

Q. Report value: activation at 50 µM, system: TRAP1 enzyme (Homo sapiens, UniProt Q12931), compound: COc1ncc(NC(=O)c2nc3ccccn3n2)cc1S(=O)(=O)Nc1c(C)cccc1C [compound 2558]
A. 151 to 180%

---

Target: TRAP1 enzyme (Homo sapiens, UniProt Q12931)
Construct: 150 nM Trap1 enzyme was incubated with various concentrations of the test compound
Sequence (Q12931 60-704): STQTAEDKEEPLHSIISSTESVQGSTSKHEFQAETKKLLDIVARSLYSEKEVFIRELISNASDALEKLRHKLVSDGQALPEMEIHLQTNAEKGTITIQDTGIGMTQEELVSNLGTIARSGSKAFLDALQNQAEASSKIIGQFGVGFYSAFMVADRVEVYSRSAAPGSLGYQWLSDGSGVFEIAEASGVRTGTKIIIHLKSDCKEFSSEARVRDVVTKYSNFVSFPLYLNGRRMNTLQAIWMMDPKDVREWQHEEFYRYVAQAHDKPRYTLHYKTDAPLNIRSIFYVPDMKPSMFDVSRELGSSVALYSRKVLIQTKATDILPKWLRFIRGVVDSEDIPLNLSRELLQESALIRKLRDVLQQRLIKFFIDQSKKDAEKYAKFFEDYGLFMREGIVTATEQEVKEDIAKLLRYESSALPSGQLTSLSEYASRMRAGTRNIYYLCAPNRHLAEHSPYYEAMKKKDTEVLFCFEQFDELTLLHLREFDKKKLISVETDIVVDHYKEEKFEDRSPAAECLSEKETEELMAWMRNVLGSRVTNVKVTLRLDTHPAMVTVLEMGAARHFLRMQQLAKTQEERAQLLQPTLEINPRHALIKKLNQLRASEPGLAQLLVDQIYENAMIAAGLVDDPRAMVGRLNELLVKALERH
Test: ADP Glo assay of TRAP1 ATPase activity
Type: biochemical
Conditions: concentration for half maximal activation; read-out: ADP GLO DRC: GeoMean EC50
Please respond with reported EC50 for every item in the list.

Q. Give EC50 for COc1ncc(NC(=O)c2csc(-c3ccccc3)n2)cc1S(=O)(=O)Nc1cc(C)n(C(C)C)n1
A. 10 to 20 µM

Q. Give EC50 for COc1ncc(NC(=O)c2ncoc2C(C)C)cc1S(=O)(=O)Nc1ccc(Cl)cc1
A. 10 to 20 µM

Q. Give EC50 for COc1ncc(NC(=O)c2ccnc3c2OCCC3)cc1S(=O)(=O)Nc1c(C)cccc1C
A. 20 to 100 µM

Q. Give EC50 for COc1ncc(NC(=O)c2cc(-n3ccnc3)ccn2)cc1S(=O)(=O)Nc1ccc(Cl)cc1
A. 10 to 20 µM

Q. Give EC50 for CNc1ncc(C(F)(F)F)cc1NS(=O)(=O)c1cc(NC(=O)c2ncc(-c3ccccc3)o2)cnc1OC
A. 20 to 100 µM

Q. Give EC50 for COc1ncc(NC(=O)c2csc(-c3ccccc3)n2)cc1S(=O)(=O)Nc1c(C#N)cccc1C(F)(F)F
A. 20 to 100 µM

Q. Give EC50 for COc1cccc(OC)c1NS(=O)(=O)c1cc(NC(=O)c2ncc(-c3ccccc3)o2)cnc1OC
A. 10 to 20 µM

Q. Give EC50 for COc1ncc(NC(=O)c2csc3c2C2CCN3CC2)cc1S(=O)(=O)Nc1c(C)cccc1C
A. < 10 µM

Q. Give EC50 for COc1ncc(NC(=O)c2csc(-c3ccccc3)n2)cc1S(=O)(=O)Nc1ccccc1CO
A. 10 to 20 µM

Q. Give EC50 for COc1cccc(OC)c1NS(=O)(=O)c1cc(NC(=O)c2csc(-c3ccccc3)n2)cnc1OC
A. < 10 µM

Q. Give EC50 for COc1ncc(NC(=O)c2csc(-c3ccccc3)n2)cc1S(=O)(=O)Nc1c(C2CC2)cccc1C1CC1
A. < 10 µM

Q. Give EC50 for O=C(Nc1cc(S(=O)(=O)Nc2ccc(Cl)cc2)cc[n+]1[O-])c1cnc(-c2ccccc2)[nH]1
A. 10 to 20 µM

Q. Give EC50 for COc1ncc(NC(=O)c2ccc3nccnc3c2)cc1S(=O)(=O)Nc1ccc(Cl)cc1
A. 10 to 20 µM

Q. Give EC50 for COc1ncc(NC(=O)c2csc(C(F)(F)F)n2)cc1S(=O)(=O)Nc1c(C)cccc1C
A. 10 to 20 µM

Q. Give EC50 for COc1ncc(NC(=O)c2coc(-c3ccc(F)cc3)n2)cc1S(=O)(=O)Nc1c(C)cc(F)cc1C
A. < 10 µM

Q. Give EC50 for [2H]c1c([2H])c([2H])c(C([2H])([2H])[2H])c(NS(=O)(=O)c2cc(NC(=S)c3coc(-c4ccccc4)n3)cnc2OC)c1[2H]
A. 20 to 100 µM

Q. Give EC50 for COc1ncc(NC(=O)c2ncc(-c3ccccc3)o2)cc1S(=O)(=O)Nc1c(Cl)cccc1Cl
A. 20 to 100 µM

Q. Give EC50 for COc1ncc(NC(=O)c2ncc(-c3ccccc3)o2)cc1S(=O)(=O)Nc1nc(C(F)(F)F)ccc1C
A. 10 to 20 µM

Q. Give EC50 for COc1cccc(C)c1NS(=O)(=O)c1cc(NC(=O)c2coc(-c3ccccc3)n2)cnc1OC
A. < 10 µM

Q. Give EC50 for COc1ncc(NC(=O)c2csc(-c3ccccc3)n2)cc1S(=O)(=O)Nc1sccc1C
A. 20 to 100 µM

Q. Give EC50 for COc1ncc(NC(=O)c2coc(-c3ccccc3)n2)cc1S(=O)(=O)Nc1c(C)cc(C#N)cc1C
A. < 10 µM

Q. Give EC50 for COc1ncc(NC(=O)c2csc3c2CCC3)cc1S(=O)(=O)Nc1c(C)cccc1C
A. < 10 µM

Q. Give EC50 for COc1ncc(NC(=O)c2ncc(-c3ccccc3)o2)cc1S(=O)(=O)Nc1cc(F)c(C#N)cc1F
A. 20 to 100 µM

Q. Give EC50 for COc1ncc(NC(=O)c2csc(-c3ccccc3)n2)cc1S(=O)(=O)Nc1nnn(Cc2ccccc2)n1
A. 20 to 100 µM

Q. Give EC50 for COc1ncc(NC(=O)c2csc(-c3ccccc3)n2)cc1S(=O)(=O)Nc1c(C)cccc1O
A. 20 to 100 µM

Q. Give EC50 for COc1ncc(NC(=O)c2ncc(-c3ccccc3)o2)cc1S(=O)(=O)Nc1c(C)c(-c2ccccc2)nn1C
A. 20 to 100 µM

Q. Give EC50 for COc1ncc(NC(=O)c2csc(-c3ccccc3)n2)cc1S(=O)(=O)Nc1nc(C(C)(C)C)ns1
A. 10 to 20 µM

Q. Give EC50 for COc1ncc(NC(=O)c2csc(C)n2)cc1S(=O)(=O)Nc1c(C)cccc1C
A. 20 to 100 µM

Q. Give EC50 for COc1ncc(NC(=O)c2coc(-c3ccccc3)n2)cc1S(=O)(=O)Nc1c(C)cccc1C1CC1
A. < 10 µM

Q. Give EC50 for COc1ncc(NC(=O)c2ncc(-c3ccccc3)o2)cc1S(=O)(=O)Nc1c(C#N)cccc1C(F)(F)F
A. 20 to 100 µM

The origin of these recorded values is patent US20230159509A1.
